Reported MIC values, Salmonella enterica subsp. enterica serovar Typhimurium C77-31.

Recorded result, CC[C@H](C)[C@H](NC(=O)[C@H](CC(C)C)NC(=O)[C@@H](NC(=O)[C@@H](N)CC(=O)O)[C@@H](C)CC)C(=O)N[C@H](C(=O)N[C@H](C(=O)NCC(=O)NCC(=O)N[C@@H](CCCN=C(N)N)C(=O)N[C@@H](CCCN=C(N)N)C(N)=O)C(C)C)[C@@H](C)CC [DILIIVGGRR] , MIC: ≥ 64 µM

MIC in this record for CC[C@H](C)[C@H](NC(=O)[C@H](CCCCN)NC(=O)[C@H](CCCCN)NC(=O)[C@H](CC(C)C)NC(=O)[C@H](CCCN=C(N)N)NC(=O)[C@H](CCCCN)NC(=O)[C@H](CCCN=C(N)N)NC(=O)[C@@H](NC(=O)[C@H](CCCCN)NC(=O)[C@H](CCCCN)NC(=O)[C@H](CCCN=C(N)N)NC(=O)[C@H](CC(C)C)NC(=O)[C@H](CCCN=C(N)N)NC(=O)[C@H](CCCN=C(N)N)NC(=O)[C@H](Cc1ccccc1)NC(=O)[C@@H](N)CCCN=C(N)N)[C@@H](C)O)C(N)=O [RFRRLRKKTRKRLKKI] : ≥ 128 µM

* * *

# System: Mycobacterium tuberculosis H37Rv
# METHOD_NOTES: ≥ marks a high value that may be exact or a test limit, other limits are often not marked, values filed in µg/mL are converted to µM
Give MIC for every item shown.
Report the value in µM with no unit label.

Result for CC[C@H](C)[C@H](NC(=O)[C@H](CCCCN)NC(=O)[C@@H](NC(=O)[C@H](Cc1ccccc1)NC(=O)[C@@H](NC(=O)[C@@H]1CCCN1C(=O)[C@H](CS)NC(=O)[C@H](C)N)[C@@H](C)CC)[C@@H](C)O)C(=O)N[C@@H](CCC(N)=O)C(=O)NCC(=O)N[C@H](C(=O)N[C@@H](CS)C(=O)N[C@@H](Cc1ccc(O)cc1)C(=O)N[C@@H](CCCN=C(N)N)C(=O)NCC(=O)O)[C@@H](C)O , tested on Mycobacterium tuberculosis H37Rv, MIC: 12.1

Given the compound CC(C)C[C@H](NC(=O)[C@H](CC(C)C)NC(=O)[C@H](CCCCN)NC(=O)[C@H](CCCCN)NC(=O)[C@@H](NC(=O)[C@H](C)N)C(C)C)C(=O)N[C@@H](CCCN=C(N)N)C(=O)N[C@@H](Cc1c[nH]c2ccccc12)C(=O)N[C@@H](Cc1c[nH]c2ccccc12)C(=O)N[C@@H](CO)C(=O)N[C@@H](CCCN=C(N)N)C(=O)N[C@@H](Cc1c[nH]c2ccccc12)C(=O)N[C@@H](Cc1c[nH]c2ccccc12)C(=O)N[C@@H](CCCCN)C(=O)N[C@@H](CCCCN)C(=O)O and test system Mycobacterium tuberculosis H37Rv, the measured MIC is 9.05

* * *

MEASURE_NAME: MIC (µM)
Expressed in µM, but write only the number.

The compound CC(C)C[C@H](NC(=O)[C@H](C)NC(=O)[C@H](CCCCN)NC(=O)[C@H](CC(C)C)NC(=O)[C@@H](N)Cc1ccccc1)C(=O)N[C@@H](Cc1c[nH]c2ccccc12)C(=O)N[C@@H](CCCCN)C(=O)N[C@H](C(=O)N[C@@H](C)C(=O)N[C@@H](CCCCN)C(=O)N[C@@H](CCCCN)C(=O)N[C@H](C(=O)N[C@@H](Cc1ccccc1)C(N)=O)C(C)C)C(C)C [FLKALWKVAKKVF] on Escherichia coli SBS 363: MIC was 1.6

The reported MIC value, Escherichia coli SBS 363, for CC[C@H](C)[C@H](NC(=O)[C@@H]1CCCN1C(=O)[C@H](CC(C)C)NC(=O)[C@H](Cc1ccc(O)cc1)NC(=O)[C@H](CCCCN)NC(=O)[C@H](CCCCN)NC(=O)[C@H](CC(C)C)NC(=O)[C@H](C)NC(=O)[C@H](CO)NC(=O)[C@H](CC(C)C)NC(=O)[C@H](Cc1ccccc1)NC(=O)CN)C(=O)N[C@H](C(=O)N[C@@H](CC(C)C)C(=O)N[C@@H](CCCCN)C(=O)N[C@@H](Cc1cnc[nH]1)C(=O)N[C@H](C(=O)O)C(C)C)C(C)C [GFLSALKKYLPIVLKHV] reads 3.12

The compound CC(C)[C@H](N)C(=O)N[C@@H](C)C(=O)N[C@@H](CCC(=O)O)C(=O)N[C@@H](C)C(=O)N[C@@H](CCCN=C(N)N)C(=O)N[C@@H](CCC(N)=O)C(=O)NCC(=O)N[C@@H](CO)C(=O)N[C@@H](Cc1ccccc1)C(=O)N[C@@H](CO)C(=O)N[C@@H](Cc1ccc(O)cc1)C(=O)O [VAEARQGSFSY] , when measured on Escherichia coli SBS 363, yielded MIC of 25

* * *

# System: Escherichia coli ATCC 25922
Could you please mark t for values of MIC below 10 µM and f for values at or above it?

Field: below-cutoff. Rule: recorded MIC strictly less than 10 µM. Subject: CC[C@H](C)[C@H](NC(=O)[C@@H]1CCCN1C(=O)[C@H](CCCN=C(N)N)NC(=O)[C@@H]1CCCN1C(=O)[C@H](Cc1cnc[nH]1)NC(=O)[C@H](CO)NC(=O)[C@H](CO)NC(=O)[C@@H]1CCCN1C(=O)[C@H](CCCN=C(N)N)NC(=O)[C@@H]1CCCN1C(=O)[C@H](CO)NC(=O)[C@H](Cc1ccc(O)cc1)NC(=O)[C@@H]1CCCN1C(=O)[C@H](CCCN=C(N)N)NC(=O)[C@@H]1CCCN1C(=O)[C@H](CCCCN)NC(=O)CN)C(=O)N[C@@H](CCCN=C(N)N)C(=O)N[C@H](C(=O)O)C(C)C [GKPRPYSPRPSSHPRPIRV]
t

Identify whether the molecule CC[C@H](C)[C@H](NC(=O)[C@H](CC(C)C)NC(=O)[C@H](CCC(N)=O)NC(=O)[C@@H](NC(=O)[C@H](CC(C)C)NC(=O)[C@H](CCCN=C(N)N)NC(=O)[C@H](CCCN=C(N)N)NC(=O)[C@@H](NC(=O)[C@H](C)NC(=O)[C@H](CCCCN)NC(=O)[C@H](CCCN=C(N)N)NC(=O)[C@@H](N)CC(C)C)[C@@H](C)O)C(C)C)C(=O)N[C@H](C(=O)N[C@@H](CO)C(=O)NCC(=O)O)C(C)C [LRKATRRLVQLIVSG] records MIC below 10 µM.
f

# TODO verify MIC < 10 µM strictly for this molecule: CC(C)C[C@H](NC(=O)[C@H](C)NC(=O)[C@@H](NC(=O)[C@H](CCCCN)NC(=O)[C@H](C)NC(=O)[C@H](CCCN=C(N)N)NC(=O)[C@H](CCCCN)NC(=O)[C@H](C)NC(=O)[C@H](C)NC(=O)CN)[C@@H](C)O)C(N)=O [GAAKRAKTAL]
f

Record CC(C)C[C@H](NC(=O)[C@H](Cc1c[nH]c2ccccc12)NC(=O)[C@H](CCCCN)NC(=O)[C@H](CC(C)C)NC(=O)[C@@H](N)CC(C)C)C(=O)N[C@@H](CCCCN)C(=O)N[C@@H](CCCCN)C(N)=O [LLKWLKK] : is its MIC strictly below 10 µM?
f

Record CC[C@H](C)[C@H](NC(=O)[C@@H](N)CCCCN)C(=O)NCC(=O)N[C@@H](CCCCN)C(=O)N[C@@H](C)C(=O)N[C@@H](CC(C)C)C(=O)NCC(=O)N[C@@H](CCCCN)C(=O)N[C@@H](C)C(=O)N[C@@H](CC(C)C)C(=O)N[C@@H](CCCCN)C(=O)N[C@@H](C)C(=O)N[C@@H](CC(C)C)C(=O)NCC(=O)N[C@@H](CCCCN)C(=O)N[C@@H](C)C(=O)N[C@@H](CC(C)C)C(=O)NCC(=O)N[C@@H](CCCCN)C(=O)N[C@@H](C)C(N)=O [KIGKALGKALKALGKALGKA] : is its MIC strictly below 10 µM?
t

In plain terms, does CC[C@H](C)[C@H](NC(=O)[C@H](CCCCN)NC(=O)[C@H](CCCCN)NC(=O)[C@H](CC(C)C)NC(=O)[C@H](CCCN=C(N)N)NC(=O)[C@H](CCCCN)NC(=O)[C@H](CCCN=C(N)N)NC(=O)[C@@H](NC(=O)[C@H](CCCCN)NC(=O)[C@H](CCCCN)NC(=O)[C@H](CCCN=C(N)N)NC(=O)[C@H](CC(C)C)NC(=O)[C@H](CCCN=C(N)N)NC(=O)[C@H](CCCN=C(N)N)NC(=O)[C@H](Cc1ccccc1)NC(=O)[C@@H](N)CCCN=C(N)N)[C@@H](C)O)C(N)=O [RFRRLRKKTRKRLKKI] come in under 10 µM for MIC?
f

State whether 10 µM exceeds MIC recorded for CC(C)C[C@H](NC(=O)[C@H](CC(C)C)NC(=O)[C@H](CCCCN)NC(=O)[C@H](CCCCN)NC(=O)[C@H](CC(C)C)NC(=O)[C@H](CC(C)C)NC(=O)[C@H](CCCCN)NC(=O)[C@H](CC(C)C)NC(=O)[C@@H](N)Cc1ccccc1)C(N)=O [FLKLLKKLL] .
f

Would you kindly verify if MIC of CC[C@H](C)[C@H](NC(=O)CN)C(=O)N[C@H](C(=O)N[C@@H](C)C(=O)NCC(=O)N[C@H](C(=O)N[C@H](C(=O)N[C@@H](CCCCN)C(=O)N[C@H](C(=O)N[C@H](C(=O)N[C@@H](CCCCN)C(=O)N[C@@H](C)C(N)=O)[C@@H](C)CC)[C@@H](C)CC)[C@@H](C)CC)[C@@H](C)CC)[C@@H](C)CC [GIIAGIIKIIKA] is strictly less than 10 µM?
f

Just wondering, is MIC of CC[C@H](C)[C@H](NC(=O)[C@H](Cc1c[nH]c2ccccc12)NC(=O)[C@H](Cc1ccccc1)NC(=O)[C@H](CC(C)C)NC(=O)CN)C(=O)N[C@H](C(=O)N[C@@H](CCCCN)C(=O)N[C@@H](CCCCN)C(=O)N[C@H](C(=O)N[C@H](C(=O)NCC(=O)N[C@@H](CCCCN)C(=O)N[C@@H](CC(C)C)C(=O)N[C@@H](CCCN=C(N)N)C(=O)O)[C@@H](C)CC)[C@@H](C)O)[C@@H](C)CC [GLFWIIKKTIGKLR] below 10 µM?
t
